test: PK: brain and plasma levels collected after the FST; assay type: in vivo, rat; settings: Wistar; rat brain tissue; read-out: Brain
METRIC: concentration at 24 h (nM)
Kindly answer with a numeric value in nM, unit omitted.

Prompt line: Item "O=C(O)c1cc(F)cc(-c2cccc(-c3nsc(-c4ccoc4)n3)c2)c1" has what recorded concentration at 24 h?
Response line: 210

Prompt line: Same question for "O=C(O)c1cc(-c2cccc(-c3nc(-c4ccc(C(F)(F)F)nc4)cc(C(F)(F)F)n3)c2)ccc1F" please.
Response line: 140

Prompt line: Would you kindly repeat that for "O=C(O)c1cccc(-c2cccc(-c3cc(-c4ccccc4)on3)c2)c1" ?
Response line: 500

Prompt line: Now the compound "O=C1CC(c2ccnc(Br)c2)=Nc2ccc(C(F)(F)F)cc2N1"
Response line: 1430

Prompt line: What do we get for "N#Cc1cc(C2=Nc3ccc(Br)cc3NC(=O)C2)ccn1" ?
Response line: 280

Prompt line: Similarly, "O=C(O)c1cc(-c2cccc(-c3nc(-c4ccoc4)cc(C(F)(F)F)n3)c2)ccc1F" ?
Response line: 490

Data origin, for the record: patent US9969726B2
